B1: NF2 (merlin) isoform 7, human, full length (507 aa, lacks exons 2-3 = isoform-1 residues 39-121; exon-16 C-terminus), P35240-4 (parent)
chain: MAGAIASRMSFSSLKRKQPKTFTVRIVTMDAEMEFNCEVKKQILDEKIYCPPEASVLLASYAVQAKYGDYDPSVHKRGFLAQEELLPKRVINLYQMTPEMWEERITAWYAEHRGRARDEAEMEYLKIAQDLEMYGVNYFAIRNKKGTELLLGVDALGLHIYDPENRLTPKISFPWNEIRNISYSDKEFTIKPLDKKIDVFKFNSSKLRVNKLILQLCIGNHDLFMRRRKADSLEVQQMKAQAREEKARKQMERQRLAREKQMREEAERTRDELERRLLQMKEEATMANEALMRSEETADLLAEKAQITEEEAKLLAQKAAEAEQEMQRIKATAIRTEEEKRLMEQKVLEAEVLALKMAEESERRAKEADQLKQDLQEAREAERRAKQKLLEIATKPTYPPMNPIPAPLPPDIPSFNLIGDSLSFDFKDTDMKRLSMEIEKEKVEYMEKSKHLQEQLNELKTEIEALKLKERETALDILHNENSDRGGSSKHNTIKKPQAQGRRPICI

Variants of: B1
Assay: reverse yeast two-hybrid deep mutational scan (rY2H-seq): NF2 isoform 7 mutant library as bait mated with wild-type prey strains; selection on medium lacking adenine for non-interacting pairs; NextSeq paired-end sequencing; enrichment vs …
Conditions: with EMILIN1 (elastin microfibril interfacer 1), Q9Y6C2; yeast diploids after mating (RBait_S3 x RPrey_S3), 30 °C, selection for reporter genes on NB agar; human ABL2 co-expressed as the kinase-dead K35M mutant …; HIGHER = WEAKER BINDING (the opposite of display enrichments): higher = stronger loss of interaction: reverse Y2H selects yeast in which bait and prey do NOT interact (growth without adenine), so a …; hits-only table; scale: rY2H score; numbering: uniprot, sequence starts at 1
Please use 1.0 whenever enrichment is not below 3, and 0.0 whenever it is.

VARIANT_DESCRIPTOR	CLASSIFICATION
M401A	0.0
E164K	0.0
M326E	1.0
M431K	0.0
G157A	1.0
I412A	0.0
T332L	0.0
M292S	0.0
K388A	0.0
N402T	0.0
T429L	0.0
A365E	0.0
E382K	0.0
R253K	1.0
K313A	0.0
A333K	0.0
G78A	1.0
T97I	0.0
A312G	0.0
A320L	0.0
G486K	1.0
H159S	1.0
Y161K	1.0
E265K	1.0
G114A	1.0
T308E	0.0
T473L	1.0
G419V	0.0
D430L	0.0
K281A	1.0
K490E	1.0
R384A	0.0
N176L	1.0
K340A	0.0
E267A	0.0
L301E	1.0
L301K	1.0
E177L	1.0
K318E	1.0
E367A	0.0
K246R	0.0
L342A	0.0
H491N	0.0
M431A	0.0
C217Y	0.0
L355K	1.0
I141A	1.0
A333T	0.0
E339L	0.0
H491K	0.0
A316S	1.0
R227K	0.0
L417K	0.0
Q327K	0.0
